All figures here come from patent US20230111853A1.

- Test system: IKZF1, ASS1 and SALL4 recruitment to CRBN
- TEST: Recruitment assessment: recruitment of any tested substrate from among IKZF1, ASS1 and SALL4
- Assay type: cell-based
- MEASUREMENT_PARAMETERS: any tested substrate at any tested compound concentration
EXPERIMENTAL_READOUT: Recruitment Assessment

Answered cases to consult:
CN(C)CC(=O)Nc1ccc2c(c1)C(=O)N(C1CCC(=O)NC1=O)C2 (stereo not shown) :: FALSE
Nc1cccc2c1C(=O)N(C1CCC(=O)NC1=O)C2=O (stereo not shown) [POM, reference compound] :: TRUE
CC1CCN(C(=O)CNc2ccc3c(c2)C(=O)N(C2CCC(=O)NC2=O)C3)CC1 (stereo not shown) :: FALSE
CC(=O)NC1c2ccccc2C(=O)N1C1CCC(=O)NC1=O (stereo not shown) :: TRUE
O=C1CCC(N2Cc3c(NC(=O)Nc4cccc5c4CN(C4CCC(=O)NC4=O)C5=O)cccc3C2=O)C(=O)N1 (stereo not shown) :: TRUE
Cc1cccc2nnn(C3CCC(=O)NC3=O)c(=O)c12 (stereo not shown) :: TRUE
Cc1cccc2c1CN(C1CCC(=O)NC1=O)C2=O (stereo not shown) :: TRUE
CC1CCCN(C(=O)CNc2ccc3c(c2)C(=O)N(C2CCC(=O)NC2=O)C3)C1 (stereo not shown) :: FALSE
N#Cc1cccc2c1CN(C1CCC(=O)NC1=O)C2=O (stereo not shown) :: TRUE
O=C1CCC(N2Cc3ccc(NC(=O)c4ccc5cnccc5n4)cc3C2=O)C(=O)N1 (stereo not shown) :: FALSE

Hi! What's the reported Recruitment Assessment for Cc1ccc2c(c1)C(=O)N(C1CCC(=O)NC1=O)C2 (stereo not shown) on IKZF1, ASS1 and SALL4 recruitment to CRBN?
TRUE

Item O=C1CCC(N2C(=O)c3ccccc3C2Nc2ccccc2)C(=O)N1 (stereo not shown) with IKZF1, ASS1 and SALL4 recruitment to CRBN - Recruitment Assessment?
FALSE

Recruitment Assessment of Nc1cccc2c(=O)n(C3CCC(=O)NC3=O)nnc12 (stereo not shown) on IKZF1, ASS1 and SALL4 recruitment to CRBN?
FALSE

Please state recorded Recruitment Assessment (tested on IKZF1, ASS1 and SALL4 recruitment to CRBN) of Cc1nc2cccc(N)c2c(=O)n1C1CCC(=O)NC1=O (stereo not shown) [CC-122, reference compound]
TRUE

Lookup: Recruitment Assessment / IKZF1, ASS1 and SALL4 recruitment to CRBN / O=C1CCCC(N2Cc3c(cccc3[N+](=O)[O-])C2=O)C(=O)N1 (stereo not shown)
TRUE

Field: Recruitment Assessment (IKZF1, ASS1 and SALL4 recruitment to CRBN). Entry: O=C1CCC(N2Cc3ccc(NCC(=O)N4CC5COCC5C4)cc3C2=O)C(=O)N1 (stereo not shown)
FALSE

* * *

- TARGET_DESC: IKZF1 (isoform 7) recruitment to CRBN (Homo sapiens, UniProt Q96SW2)
- Construct: Full size proteins were fused for each of the target proteins tested, except in the case of IKZF1 where isoform 7 was used
- Sequence (Q96SW2 whole entry, the tested form may be a part, canonical isoform): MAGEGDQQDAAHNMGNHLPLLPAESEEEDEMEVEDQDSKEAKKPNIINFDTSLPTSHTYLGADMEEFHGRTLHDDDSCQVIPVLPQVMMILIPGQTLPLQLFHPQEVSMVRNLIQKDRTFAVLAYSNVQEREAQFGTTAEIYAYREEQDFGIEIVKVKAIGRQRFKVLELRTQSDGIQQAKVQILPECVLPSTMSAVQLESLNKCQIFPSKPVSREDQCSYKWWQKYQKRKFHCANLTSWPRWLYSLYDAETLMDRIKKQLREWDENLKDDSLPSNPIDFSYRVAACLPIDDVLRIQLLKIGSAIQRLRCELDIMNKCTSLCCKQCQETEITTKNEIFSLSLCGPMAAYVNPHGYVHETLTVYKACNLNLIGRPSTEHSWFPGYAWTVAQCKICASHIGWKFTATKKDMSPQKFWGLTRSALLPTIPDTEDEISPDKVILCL
- Sequence (Q13422 1-477 isoform Q13422-7 partner): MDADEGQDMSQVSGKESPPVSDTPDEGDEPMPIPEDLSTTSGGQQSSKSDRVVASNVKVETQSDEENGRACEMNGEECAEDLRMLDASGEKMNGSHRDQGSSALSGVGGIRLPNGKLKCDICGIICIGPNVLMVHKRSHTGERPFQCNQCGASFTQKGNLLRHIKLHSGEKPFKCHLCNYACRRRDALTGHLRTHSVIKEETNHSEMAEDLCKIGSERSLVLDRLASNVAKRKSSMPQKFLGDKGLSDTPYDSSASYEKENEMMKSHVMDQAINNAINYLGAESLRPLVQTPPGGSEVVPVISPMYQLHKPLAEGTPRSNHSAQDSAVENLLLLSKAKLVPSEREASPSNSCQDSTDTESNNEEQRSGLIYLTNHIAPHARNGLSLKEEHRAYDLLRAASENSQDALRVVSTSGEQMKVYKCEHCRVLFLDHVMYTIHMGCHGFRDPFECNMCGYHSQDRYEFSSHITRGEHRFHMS
- Sequence (Q16531 whole entry partner, the tested form may be a part, canonical isoform): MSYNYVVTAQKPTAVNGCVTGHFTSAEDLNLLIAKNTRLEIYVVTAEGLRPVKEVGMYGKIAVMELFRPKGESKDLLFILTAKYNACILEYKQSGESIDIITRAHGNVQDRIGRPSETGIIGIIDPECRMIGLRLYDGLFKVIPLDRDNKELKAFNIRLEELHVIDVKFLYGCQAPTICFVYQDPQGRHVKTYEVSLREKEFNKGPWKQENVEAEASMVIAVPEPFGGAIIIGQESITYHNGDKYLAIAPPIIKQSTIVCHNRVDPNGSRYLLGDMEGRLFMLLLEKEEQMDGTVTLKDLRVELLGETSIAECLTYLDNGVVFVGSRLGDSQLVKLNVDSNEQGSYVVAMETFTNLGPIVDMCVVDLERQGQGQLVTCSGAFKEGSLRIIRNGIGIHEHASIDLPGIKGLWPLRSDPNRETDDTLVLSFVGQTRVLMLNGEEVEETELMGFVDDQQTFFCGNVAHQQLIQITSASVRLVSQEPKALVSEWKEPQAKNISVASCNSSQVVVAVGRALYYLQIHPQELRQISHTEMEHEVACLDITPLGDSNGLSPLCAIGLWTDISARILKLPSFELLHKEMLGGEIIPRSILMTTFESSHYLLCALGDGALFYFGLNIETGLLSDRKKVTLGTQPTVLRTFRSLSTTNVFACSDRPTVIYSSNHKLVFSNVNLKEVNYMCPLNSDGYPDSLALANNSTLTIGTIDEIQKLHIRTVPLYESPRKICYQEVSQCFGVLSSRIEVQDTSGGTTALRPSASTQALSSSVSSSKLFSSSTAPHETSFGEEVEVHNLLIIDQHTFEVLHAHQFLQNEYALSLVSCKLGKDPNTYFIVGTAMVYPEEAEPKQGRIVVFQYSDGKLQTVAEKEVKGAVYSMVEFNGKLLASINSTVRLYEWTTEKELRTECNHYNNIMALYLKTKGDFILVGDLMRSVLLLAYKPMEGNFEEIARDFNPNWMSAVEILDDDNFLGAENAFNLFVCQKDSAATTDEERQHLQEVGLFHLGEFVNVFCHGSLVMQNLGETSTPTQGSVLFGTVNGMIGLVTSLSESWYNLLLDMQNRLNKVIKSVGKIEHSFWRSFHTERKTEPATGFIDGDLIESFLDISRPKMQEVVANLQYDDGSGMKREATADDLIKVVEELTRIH
- TEST: Recruitment Assay (MAPPIT-like): IKZF1 recruitment to CRBN
- MEASUREMENT_PARAMETERS: HEK293T cells; pSEL-CRBN+pMG1-IKZF1(isoform 7); luciferase 24 hours after treatment; read-out: EC50_IKZF1
Entries and their EC50
Value expressed in µM; do not type the unit.

# example entries with known answers
O=C1CCC(N2Cc3cc(Nc4ncc5c(n4)COC5)ccc3C2=O)C(=O)N1 (stereo not shown) [C80380] :: 1.78
Cc1cccc2nnn(C3CCC(=O)NC3=O)c(=O)c12 (stereo not shown) [C13247] :: 2.88
O=C1CCC(N2Cc3cc(NCC(=O)Nc4ccccc4)ccc3C2=O)C(=O)N1 (stereo not shown) [C35797] :: 1.33

GET /values?readout=EC50&item= O=C1CCC(N2Cc3c(ccc4c3OCO4)C2=O)C(=O)N1 (stereo not shown) [C67858]
0.569

So what's the measured EC50 for this one? Nc1cccc2c1CN(C1CC(=O)NC1=O)C2=O (stereo not shown) [C47930]
0.784

Given the compound CC1c2ccccc2C(=O)N1C1CCC(=O)NC1=O (stereo not shown) [C51383] , what is its reported EC50?
1.52

* * *

- Tested on: IKZF1, ASS1 and SALL4 recruitment to CRBN
- TEST: Recruitment assessment: recruitment of any tested substrate from among IKZF1, ASS1 and SALL4
- Type: cell-based
- MEASUREMENT_PARAMETERS: any tested substrate at any tested compound concentration
EXPERIMENTAL_READOUT: Recruitment Assessment

Example entries begin here.
CC(=O)O.O=C1CCC(N2Cc3ccc(Nc4ncnc5ccccc45)cc3C2=O)C(=O)N1 (centres unmarked) [C80382 acetic acid salt] :: FALSE
O=C1CCC(N2Cc3ccc(NCC(=O)N4CCc5ccccc5C4)cc3C2=O)C(=O)N1 (centres unmarked) :: FALSE
Nc1cccc2c1CN(C1CC(=O)NC1=O)C2=O (centres unmarked) :: TRUE
O=C1CCC(N2Cc3cc(Nc4ncccn4)ccc3C2=O)C(=O)N1 (centres unmarked) :: TRUE

Need Recruitment Assessment, item O=C1CCC(N2Cc3ccc(Nc4[nH]cnc5nccc4-5)cc3C2=O)C(=O)N1 (centres unmarked)
FALSE

* * *

- TARGET_DESC: ASS1 recruitment to CRBN (Homo sapiens)
- Construct: Full size proteins were fused for each of the target proteins tested, except in the case of IKZF1 where isoform 7 was used
- Sequence (Q96SW2 whole entry, the tested form may be a part, canonical isoform): as the sequence (Q96SW2 whole entry, the tested form may be a part, canonical isoform) above
- Sequence (P00966 whole entry partner, the tested form may be a part, canonical isoform): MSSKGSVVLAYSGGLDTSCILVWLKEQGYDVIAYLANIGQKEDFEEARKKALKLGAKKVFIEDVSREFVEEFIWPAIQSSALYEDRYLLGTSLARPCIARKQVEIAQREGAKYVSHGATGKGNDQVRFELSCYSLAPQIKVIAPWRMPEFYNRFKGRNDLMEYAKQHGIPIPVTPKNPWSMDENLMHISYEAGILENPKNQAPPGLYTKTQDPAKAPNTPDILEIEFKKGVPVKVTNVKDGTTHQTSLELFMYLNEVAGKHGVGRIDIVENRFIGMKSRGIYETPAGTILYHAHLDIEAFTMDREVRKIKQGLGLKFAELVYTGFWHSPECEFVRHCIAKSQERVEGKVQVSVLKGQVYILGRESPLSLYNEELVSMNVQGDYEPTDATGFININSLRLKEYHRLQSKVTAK
- Sequence (Q16531 whole entry partner, the tested form may be a part, canonical isoform): as the sequence (Q16531 whole entry partner, the tested form may be a part, canonical isoform) above
- TEST: Recruitment Assay (MAPPIT-like): ASS1 recruitment to CRBN
- MEASUREMENT_PARAMETERS: HEK293T cells; pSEL-CRBN+pMG1-ASS1; luciferase 24 hours after treatment; read-out: EC50_ASS1
- Description: In this experimental set-up, cells were transfected with a construct encoding a CRBN-fusion protein and another one encoding a substrate-fusion protein. Test compound activity was assessed with increasing concentrations of test compounds (dose-response studies) to monitor the ability to promote CRBN-ligand-induced protein interaction. Full size proteins were fused for each of the target proteins tested, except in the case of IKZF1 where isoform 7 was used. […]
pEC50 for assorted molecules
# pEC50 is unitless: minus log10 of the molar concentration; print number only

pEC50 lookup needed for O=C1CCC(N2Cc3c(Cl)cccc3C2=O)C(=O)N1 (stereo not drawn) , thanks.
6.59

Reported pEC50, molecule O=C1CCC(N2Cc3c(cccc3-c3ccccc3)C2=O)C(=O)N1 (stereo not drawn) : ____
6.04

Bench note: what pEC50 did Cc1cccc2nnn(C3CCC(=O)NC3=O)c(=O)c12 (stereo not drawn) show?
5.07

* * *

- TARGET_DESC: IKZF1 (isoform 7) recruitment to CRBN (Homo sapiens)
- Construct: Full size proteins were fused for each of the target proteins tested, except in the case of IKZF1 where isoform 7 was used
- TEST: Recruitment Assay (MAPPIT-like): IKZF1 recruitment to CRBN
- MEASUREMENT_PARAMETERS: HEK293T cells; pSEL-CRBN+pMG1-IKZF1(isoform 7); luciferase 24 hours after treatment; read-out: EC50_IKZF1
pEC50: −log10 of the molar value.
Label F if pEC50 falls below 6; label T in every other case.

Observe how each entry below is paired with its result.
Cc1ccc2c(c1)CN(C1CCC(=O)NC1=O)C2=O (stereo not shown) :: F
N#CC1c2ccccc2C(=O)N1C1CCC(=O)NC1=O (stereo not shown) :: F

Textbook exercise: given the entry O=C1CCC(N2Cc3c(NC(=O)Nc4cccc5c4CN(C4CCC(=O)NC4=O)C5=O)cccc3C2=O)C(=O)N1 (stereo not shown) , state whether its pEC50 is greater than or equal to 6.
F

Could you tell me if the measured pEC50 of N#Cc1ccc2c(c1)C(=O)N(C1CCC(=O)NC1=O)C2 (stereo not shown) reaches 6 or more?
F

Item O=C(O)CN1CCN(Cc2ccc(COc3cccc4c3CN(C3CCC(=O)NC3=O)C4=O)cc2)CC1.O=CO (stereo not shown) with pEC50 of 6 or above?
F

Exam item: decide whether the reported pEC50 for Nc1cccc2nnn(C3CCC(=O)NC3=O)c(=O)c12 (stereo not shown) is at least 6.
T

Dear colleague, could you confirm whether O=C1CCC(N2Cc3c(Cl)cccc3C2=O)C(=O)N1 (stereo not shown) has pEC50 at or above 6?
T

* * *

- System: IKZF1, ASS1 and SALL4 recruitment to CRBN
- TEST: Recruitment assessment: recruitment of any tested substrate from among IKZF1, ASS1 and SALL4
- Assay type: cell-based
- MEASUREMENT_PARAMETERS: any tested substrate at any tested compound concentration
EXPERIMENTAL_READOUT: Recruitment Assessment

Examples with their reported Recruitment Assessment follow.
O=C(CNc1ccc2c(c1)C(=O)N(C1CCC(=O)NC1=O)C2)NCc1ccccc1 (centres unmarked) [C84966] :: FALSE
CCOC(=O)NCCNc1ccc2c(c1)CN(C1CCC(=O)NC1=O)C2=O (centres unmarked) [C35754] :: TRUE
CN(C)c1ccc2c(c1)C(=O)N(C1CCC(=O)NC1=O)C2 (centres unmarked) [C96622] :: FALSE
Cc1c(N)cccc1C(=O)NC1CCC(=O)NC1=O (centres unmarked) [C38930] :: FALSE
CC1CN(C(=O)CNc2ccc3c(c2)C(=O)N(C2CCC(=O)NC2=O)C3)CCO1 (centres unmarked) [C12586] :: FALSE

Recorded Recruitment Assessment for O=C1CCC(N2C(=O)C=C(c3ccccc3)C2=O)C(=O)N1 (centres unmarked) [C64319] with IKZF1, ASS1 and SALL4 recruitment to CRBN, please?
FALSE

For the record O=C1CCC(N2Cc3cccc([N+](=O)[O-])c3C2=O)C(=O)N1 (centres unmarked) [C99884] , what value of Recruitment Assessment is listed for IKZF1, ASS1 and SALL4 recruitment to CRBN?
FALSE

# returns recorded Recruitment Assessment (system: IKZF1, ASS1 and SALL4 recruitment to CRBN) for O=C1CCC(N2C(=O)CC3(CCOCC3)C2=O)C(=O)N1 (centres unmarked) [C64348]
FALSE

Can you look up Recruitment Assessment on IKZF1, ASS1 and SALL4 recruitment to CRBN for CC1CN(C(=O)CNc2ccc3c(c2)C(=O)N(C2CCC(=O)NC2=O)C3)CC(=O)N1 (centres unmarked) [C12598] ?
FALSE

Which Recruitment Assessment is reported with IKZF1, ASS1 and SALL4 recruitment to CRBN for this entry: O=C1c2ccccc2CC1n1ccc(=O)[nH]c1=O (centres unmarked) [C16899, 1-(1-oxoindan-2-yl)pyrimidine-2,4-dione] ?
FALSE

Requested read-out Recruitment Assessment, target or system IKZF1, ASS1 and SALL4 recruitment to CRBN, entry O=C1CCC(N2Cc3ccccc3C2=O)C(=O)N1 (single isomer, unassigned) [5′-OH-THL, reference compound]
FALSE

Item O=C1CCC(Nc2ncc3ccccc3n2)C(=O)N1 (centres unmarked) [C97402] with IKZF1, ASS1 and SALL4 recruitment to CRBN - Recruitment Assessment?
FALSE

For the record CC1Cc2ccccc2N1C(=O)CNc1ccc2c(c1)C(=O)N(C1CCC(=O)NC1=O)C2 (centres unmarked) [C95336] , what value of Recruitment Assessment is listed for IKZF1, ASS1 and SALL4 recruitment to CRBN?
FALSE

Checklist item: Recruitment Assessment tested on IKZF1, ASS1 and SALL4 recruitment to CRBN, entry Nc1nc(Nc2ccc3c(c2)CN(C2CCC(=O)NC2=O)C3=O)nc2sccc12 (centres unmarked) [C80379] , value?
TRUE

Can you look up Recruitment Assessment on IKZF1, ASS1 and SALL4 recruitment to CRBN for O=C1CCC(N2Cc3ccc(NCC(=O)NC4CC4)cc3C2=O)C(=O)N1 (centres unmarked) [C84963] ?
FALSE

What is its Recruitment Assessment for IKZF1, ASS1 and SALL4 recruitment to CRBN? Entry: O=C1CCC(n2nnc3ccccc3c2=O)C(=O)N1 (centres unmarked) [C21223]
TRUE

Can you look up Recruitment Assessment on IKZF1, ASS1 and SALL4 recruitment to CRBN for NCc1ccc2c(c1)C(=O)N(C1CCC(=O)NC1=O)C2 (centres unmarked) [C66979] ?
FALSE

What is its Recruitment Assessment for IKZF1, ASS1 and SALL4 recruitment to CRBN? Entry: O=C1CCC(N2C(=O)C3=C(CCC3)C2=O)C(=O)N1 (centres unmarked) [C64324]
FALSE

So what Recruitment Assessment did O=C1CCC(N2C(=O)CCC2=O)C(=O)N1 (centres unmarked) [C14950] get with IKZF1, ASS1 and SALL4 recruitment to CRBN?
FALSE

# value lookup — system IKZF1, ASS1 and SALL4 recruitment to CRBN, readout Recruitment Assessment, item O=C1CCC(N2C(=O)c3ccccc3C2C2=c3ccccc3=NC2)C(=O)N1 (centres unmarked) [C49713]
FALSE
